The reported numbers originate from patent US8815833B2.

TEST PROTOCOL: physchem
Assay type: physicochemical
MEASUREMENT CONTEXT: 5 °C, pH 10, water
READOUT NAME: solubility

## Task Determine from records and report solubility for NCCCNCCSP(=O)(O)O [amifostine]
## Result ~100 mg/mL
